# System: barnyardgrass
# test summary: Test A pre-/postemergence greenhouse test
# Type: in vivo, Echinochloa crus-galli
# measurement parameters: Preemergence, 125 g ai/ha; 0 to 100 scale, 0 no effect, 100 complete control
Give Barnyardgrass plant response rating for every item shown.
Reply with just the number.

Item CC(c1c(C(F)(F)F)nn(C)c1Cl)S(=O)(=O)c1cccc[n+]1[O-] (stereo not shown) : provide Barnyardgrass plant response rating
100

Fill in reported Barnyardgrass plant response rating for this entry: Cn1nc(C(F)(F)F)c(C[S+]([O-])c2ccc(F)c[n+]2[O-])c1Cl (stereo not shown)
80

Tell me its Barnyardgrass plant response rating given Cn1nc(C(F)(F)F)c(C[S+]([O-])c2cc(F)cc[n+]2[O-])c1Cl (racemic) as the entry.
80

Please report Barnyardgrass plant response rating for the following molecule: Cn1nc(C(F)(F)F)c(CS(=O)(=O)c2ccc(F)c[n+]2[O-])c1Cl
50

Write down Barnyardgrass plant response rating measured for item Cn1nc(C(F)(F)C(F)(F)F)c(C[S+]([O-])c2cccc[n+]2[O-])c1OCC(F)(F)F (stereo not shown)
100

Given Cn1nc(C(F)(F)F)c(C[S+]([O-])c2ccc(Br)c[n+]2[O-])c1OC(F)F (racemic) , respond with its Barnyardgrass plant response rating.
90

Specify measured Barnyardgrass plant response rating for Cn1nc(C(F)(F)F)c(C[S+]([O-])c2ccc(Cl)c[n+]2[O-])c1OCC(F)(F)C(F)(F)F (stereo not shown) .
40

State its Barnyardgrass plant response rating for this molecule: Cn1nc(C(F)(F)F)c(C[S+]([O-])c2cccc[n+]2[O-])c1OCC(F)(F)F (racemic)
90

Consider the molecule CCn1nc(C(F)(F)F)c(C[S+]([O-])c2cccc[n+]2[O-])c1OCC(F)(F)F (racemic) . State its measured Barnyardgrass plant response rating.
80

Check the records and state Barnyardgrass plant response rating for [O-][n+]1ccccc1[S+]([O-])Cc1c(C(F)(F)F)nn(CC(F)(F)F)c1Cl (stereo not shown)
70

Output measured Barnyardgrass plant response rating for this item: Cc1cc[n+]([O-])c(S(=O)(=O)Cc2c(C(F)(F)F)nn(C)c2OCC(F)F)c1
70

Given Cc1ccc[n+]([O-])c1[S+]([O-])Cc1c(C(F)(F)F)nn(C)c1OC(F)F (stereo not shown) , respond with its Barnyardgrass plant response rating.
60

Name the recorded Barnyardgrass plant response rating of the molecule listed here: Cc1cc([S+]([O-])Cc2c(C(F)(F)F)nn(C)c2OCC(F)(F)F)[n+]([O-])cc1Cl (stereo not shown)
80

Entry Cc1cc[n+]([O-])c([S+]([O-])Cc2c(C(F)(F)F)nn(C)c2OC(C)C(F)(F)F)c1 (stereo not shown) needs its Barnyardgrass plant response rating filled in; supply it.
60

Output measured Barnyardgrass plant response rating for this item: Cn1nc(C(F)(F)F)c(C[S+]([O-])c2ccc(Cl)c[n+]2[O-])c1OCC(F)F (stereo not shown)
70

Report measured Barnyardgrass plant response rating; entry is Cn1nc(C(F)(F)F)c(CS(=O)(=O)c2cccc[n+]2[O-])c1OCC(F)(F)F
100

###

I'd be grateful if you could share measured Barnyardgrass plant response rating for these entries.
# System: barnyardgrass
# test summary: Test A pre-/postemergence greenhouse test
# Format: in vivo, Echinochloa crus-galli
# measurement parameters: Postemergence, 125 g ai/ha; 0 to 100 scale, 0 is no effect, 100 is complete control
Answer with a number only.

Quick one: give measured Barnyardgrass plant response rating for Cc1cc[n+]([O-])c([S+]([O-])Cc2c(C(F)(F)F)nn(C)c2Cl)c1 (racemic)
40

Read off the recorded Barnyardgrass plant response rating for Cn1nc(C(F)(F)F)c(CS(=O)(=O)c2cc(C(C)(C)C)cc[n+]2[O-])c1OC(F)F
40

// Input: Cc1cc[n+]([O-])c(S(=O)(=O)Cc2c(C(F)(F)F)nn(C)c2Cl)c1 . Output its Barnyardgrass plant response rating only.
40

Look up and report measured Barnyardgrass plant response rating for this entry: Cc1cc[n+]([O-])c([S+]([O-])C(C)c2c(C(F)(F)F)nn(C)c2Cl)c1 (mixture of isomers)
0

Data origin: patent US20100298141A1
